log10 of GI50 values recorded for HCT-15
METRIC: log10 of GI50 (log10 of the value in µM)

COMPOUND | log10 of GI50
N=C(N)N/N=C/c1c(-c2ccc(Cl)cc2)nc2sc(Cl)cn12 | 0.13
CCCCCCCCC(=O)NCCN(CCN)C(=O)CCCCCCCC | 0.72
COP(=O)(C(/C=C/c1ccccc1)OC(C)=O)[C@@H]1CCCC[C@H]1N(CC(C)(C)C)C(C)=O (stereo not given in full) | 1.20
COc1cccc(/C=C/C(=O)N2CC(CCl)c3c2cc(N)c2ccccc32)c1 (stereo not given) | -1.47
NC(=S)N1N=C2c3ccccc3CC[C@H]2[C@@H]1c1cccs1 | 1.33
O=S(=O)(c1ccccc1)n1cc(C[P+](c2ccccc2)(c2ccccc2)c2ccccc2)c2ccccc21 | 1.22
